Ref: ChEMBL document CHEMBL1201862

test system: NCI-H460; assay: NCI tumour cell line growth inhibition, 48 h
Active and inactive are the calls of the source. Rule as the data show it: active = GI50 up to about 1.1 µM and inactive = higher.
Outcomes: Y (active), N (inactive)

INSERT INTO results (molecule, categorylabel) VALUES
  ('CC1=C[C@H](C[C@]2(C)c3c(c4c(C)cccc4oc3=O)O[C@@H]2C)OC1=O', 'N'),
  ('COc1ccc(C2c3cc4c(cc3OC(NNC(N)=O)C2C)OCO4)cc1 (stereo unspecified)', 'N'),
  ('CC(=O)C(=O)NC1/C=C(C)\C=C/C(O)C/C=C(C)\C=C/C(O)CC2OC(=O)C1(C)C(=O)C2C (stereo unspecified)', 'N'),
  ('O=C(/C=C/c1ccc(O)c(O)c1)NC(CO)C(=O)O (stereo unspecified)', 'N'),
  ('S=C1CC(c2ccc(Cl)cc2)Sc2ccccc2N1 (stereo unspecified)', 'N'),
  ('Oc1ccc([Te]CCNCC[Te]c2ccc(O)cc2)cc1', 'N'),
  ('CCCSc1ccc2[nH]c(N3C(=O)/C(=C/c4ccc(O)c(OC)c4)N=C3c3ccccc3)cc2c1', 'Y'),
  ('CCCCNC(=S)Nn1c(-c2ccccc2)nc2ccccc2c1=O', 'N'),
  ('Cc1ccc(-n2c3nc(=O)n(C)c(=O)c-3nc3ccccc32)cc1', 'N'),
  ('COc1ccc2[nH]c3c(C)c4c(c(C)c3c2c1)CN(C)CC4', 'N'),
  ('O=S1(=O)CCN(Cc2ccccc2)/C1=N\S(=O)(=O)c1ccc(Cl)cc1', 'N');

====

test system: LOX IMVI; assay: NCI tumour cell line growth inhibition, 48 h
Activity calls are given as the source filed them. No stated cut-off is given here; in the data, active = GI50 up to about 1.1 µM and inactive = higher.
Outcomes: active, inactive

INSERT INTO assay_data (compound, categorylabel) VALUES
  ('O=C(OCc1ccccc1)c1nc2ccccc2n1S(=O)(=O)c1ccccc1', 'inactive'),
  ('COc1ccc(C2c3cc4c(cc3OC(NNC(N)=O)C2C)OCO4)cc1 (stereo unspecified)', 'inactive'),
  ('COc1cc(O)c(Cc2ccccc2O)c(O)c1C(=O)CCc1ccccc1 [UVARETIN]', 'inactive'),
  ('O=C1CCSCCC(=O)Nc2ccccc2N1', 'inactive'),
  ('CSc1c(C(=O)Nc2ccc(Cl)cc2)c(N)nn1-c1ccccc1', 'inactive'),
  ('C1OC1C1CO1 (stereo unspecified)', 'inactive'),
  ('C/C(=C1/N=C(c2ccccc2)OC1=O)c1cccs1', 'inactive'),
  ('CSC1=C(C(=O)Nc2ccccc2)C(N)=NC1=O', 'inactive'),
  ('C=CC[C@H](C[C@H](C[C@H](C[C@H](C[C@H](C[C@H](C[C@H](C[C@H](C[C@H](C[C@H](CCCCC)OC)OC)OC)OC)OC)OC)OC)OC)OC)OC', 'inactive'),
  ('N=c1oc2ccccc2cc1-c1nc2ccccc2[nH]1', 'inactive'),
  ('COC(=O)/C=C(/OC)[C@H](C)[C@H](/C=C/c1csc(-c2csc(C(C)C)n2)n1)OC', 'active');

====

Entries and their measured GI50 follow.
test system: MOLT-4; assay: NCI tumour cell line growth inhibition, 48 h
The source made the active and inactive calls. Cut-off read from the data, not from the text of the source: active = GI50 up to about 1.1 µM and inactive = higher.
readoutType: GI50

INSERT INTO results (compound, result) VALUES
  ('COCc1c(CO)cnc(C)c1OC1OC(CO)C(O)C(O)C1O (stereo not given)', '> 100 µM (inactive)'),
  ('C=CCn1c(=O)c2ccccc2[n+]2c(C)c(C(=O)OCC)sc12', '> 100 µM (inactive)'),
  ('C1=CC2C(C3CN(c4ccccc4)N=C13)C1C3C4C=CC21C=CC43 (stereo not given)', '> 100 µM (inactive)'),
  ('COc1c(C)c(C/C=C(\C)CC/C=C(\C)CC/C=C(\C)CCC=C(C)C)c(OC)c2ccccc12', '> 100 µM (inactive)'),
  ('O=C1c2sccc2C(=O)c2c(CO)csc21', '4.89 µM (inactive)'),
  ('Fc1nc(F)nc(-c2c3ccccc3c3n2CCS3)n1', '> 10 µM (inactive)'),
  ('Cc1c(C#N)c(=O)[nH]c(=O)n1CCN1CCN(C(=O)NCCCCCCNC(=O)N2CCN(CCn3c(C)c(C#N)c(=O)[nH]c3=O)CC2)CC1', '> 100 µM (inactive)'),
  ('CC(C)(C=O)CC(C#N)/C(=N\NC(N)=O)C(=O)Nc1ccccc1C(N)=O (stereo not given)', '> 100 µM (inactive)'),
  ('CCOC(=O)CCC(NC(=O)c1ccc(OCc2nc3cc(C(F)(F)F)ccc3nc2-c2ccccc2)cc1)C(=O)OCC (stereo not given)', '40 µM (inactive)'),
  ('O=C1[C@@H]2[C@@H](c3ccccc3)[C@]2(Cl)C(=O)[C@H]2[C@H](c3ccccc3)[C@@]12Cl', '> 100 µM (inactive)');
